These measurements were taken from paper PMC9268414.

- Tested on: NaV channels endogenously expressed in GH3b6 cells
- assay-notes: FRET voltage sensor probe (VSP) assay of BTX-induced depolarization in GH3b6 cells
- Assay type: cell-based, rat
- measurement-conditions: GH3b6 cells; BTX 1 µM; n = 6; read-out: IC50 (µM), inhibition of BTX-evoked VSP signal
# reported IC50; entries follow
observed-property: IC50 (µM)

{"compound": "COc1cc2c3cc1Oc1cc(ccc1O)CC1c4c(cc(OC)c(O)c4Oc4ccc(cc4)CC3N(C)CC2)CCN1C (stereo not drawn) [IA52, bebeerine]", "units-symbol": "µM", "recorded-result": 0.74}
{"compound": "COc1cccc2c1C(=O)c1nccc3cc4c(c-2c13)OCO4 [IA14, oxostephanine]", "units-symbol": "µM", "recorded-result": 6.11}
{"compound": "O=C1c2ccccc2-c2c3c(cc4ccnc1c24)OCO3 [IA39, liriodenine]", "units-symbol": "µM", "recorded-result": 5}
